Values compiled from paper PMC2756588.

Biological target: T1, Boi1, P38041
T1 sequence (P38041 1-86, looked up): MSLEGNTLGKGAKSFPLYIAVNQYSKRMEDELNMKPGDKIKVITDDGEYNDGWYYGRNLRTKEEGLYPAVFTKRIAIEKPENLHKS
Test: SPOT array
Conditions: median of control spots 1162
Lab note: anything with SPOT intensity below 5 is marked 1; values at 5 or higher are marked 0.

binder	category.label
TTNRGPPPLPPRANV	1
NFFRKKLGIPRKLKR	0
NQARKPFLLPATELS	1
TKRKRPARLIFYDSK	0
